Assay: Metabolic stability of test compounds in human liver microsomes
Format: in vitro ADME
Details: human, liver microsomes, pH 7.4, half-life in human liver microsomes, Table 2, calculated average of Exp A and B; read-out: T1/2 (min) Average
Value Type: half-life (min)

[[record]]
compound_structure_string = "[2H]C([2H])([2H])C([2H])(C([2H])([2H])[2H])C([2H])([2H])N(C[C@@H](O)[C@H](Cc1ccccc1)NC(=O)O[C@]1([2H])[C@@H]2CCO[C@@H]2OC1([2H])[2H])S(=O)(=O)c1ccc(NC(=O)C2CC2)cc1"
value_type = "half-life"
observed_measurement = 3.5

[[record]]
compound_structure_string = "[2H]C([2H])(N(C[C@@H](O)[C@H](Cc1ccccc1)NC(=O)O[C@]1([2H])[C@@H]2CCO[C@@H]2OC1([2H])[2H])S(=O)(=O)c1ccc(NC(C)=O)cc1)C1([2H])C([2H])([2H])C([2H])([2H])C([2H])([2H])C1([2H])[2H]"
value_type = "half-life"
observed_measurement = 5.4

